Assay: Brain penetration in rat after 48-hour intravenous infusion
Format: in vivo
Conditions: male, rat, brain, iv, 100 μg/h, rats, 48 hours i.v. infusion 100 μg/h; read-out: Concentration in brain, MEAN ± SD

COMPOUND	VALUE_UNITS	concentration at 48 h
N#Cc1cc(S(=O)(=O)N2C(=O)N(CCCCCN)C(=O)C2Cc2c[nH]c3ccccc23)ccc1Oc1ccc(N)cc1 (stereo not shown)	ng/g	18

* * *

pIC50: −log10 of the molar value.
Here's a batch of molecules along with measured pIC50 for SSTR5 (Homo sapiens, UniProt P35346).

MOLECULE	pIC50
Cc1cccc2c(CC3C(=O)N(CCCCCN)C(=O)N3S(=O)(=O)c3ccc(Oc4ccc(O)cc4)c(CN)c3)c[nH]c12 (stereo not shown) [Compound 45]	7.01
Cc1cccc2c(CC3C(=O)N(CCCCCN)C(=O)N3S(=O)(=O)c3ccc(Oc4ccc(O)c(Cl)c4)c(C#N)c3)c[nH]c12 (stereo not shown) [Compound 44]	6.77
Cc1cccc2c(CC3C(=O)N(CCCCCN)C(=O)N3S(=O)(=O)c3ccc(Oc4ccc(O)cc4)c(C#N)c3)c[nH]c12 (stereo not shown) [Compound 14]	6.35
N#Cc1cc(S(=O)(=O)N2C(=O)N(CCCCCN)C(=O)C2Cc2c[nH]c3ccccc23)ccc1Oc1ccc(N)cc1 (stereo not shown) [Compound 42]	5.85

* * *

Assay: Plasma protein binding, equilibrium dialysis, rat plasma
Assay type: in vitro ADME
RECORDED_METRIC: binding to plasma proteins

COMPOUND	MEASURED_VALUE
N#Cc1cc(S(=O)(=O)N2C(=O)N(CCCCCN)C(=O)C2Cc2c[nH]c3ccccc23)ccc1Oc1ccc(N)cc1 (stereo not shown)	90%

* * *

Target: SS1 (Rattus norvegicus, UniProt P30680)
Sequence (P30680 whole entry): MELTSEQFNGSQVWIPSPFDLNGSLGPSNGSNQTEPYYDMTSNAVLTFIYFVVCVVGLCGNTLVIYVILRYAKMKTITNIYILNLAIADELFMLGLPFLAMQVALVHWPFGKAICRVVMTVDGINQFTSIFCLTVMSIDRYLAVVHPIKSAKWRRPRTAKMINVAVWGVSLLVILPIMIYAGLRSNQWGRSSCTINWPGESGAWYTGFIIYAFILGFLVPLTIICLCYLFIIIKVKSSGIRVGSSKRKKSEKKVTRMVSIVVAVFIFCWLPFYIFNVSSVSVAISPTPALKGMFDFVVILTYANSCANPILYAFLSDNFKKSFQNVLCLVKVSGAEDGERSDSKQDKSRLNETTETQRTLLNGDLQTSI
Experiment: SS-1 binding (Bind SS1 D.H.)

COMPOUND	Bind SS1 D.H. / nM
Cc1cccc2c(CC3C(=O)N(CCCCCN)C(=O)N3S(=O)(=O)c3ccc(Oc4ccc(O)cc4)c(C#N)c3)c[nH]c12 (centres unmarked) [Compound 14]	2.50
Cc1cccc2c(CC3C(=O)N(CCCCCN)C(=O)N3S(=O)(=O)c3ccc(Oc4ccc(O)cc4)c(CN)c3)c[nH]c12 (centres unmarked) [Compound 45]	1.00
Cc1cccc2c(CC3C(=O)N(CCCCCN)C(=O)N3S(=O)(=O)c3ccc(Oc4ccc(O)cc4)c(C(=O)N(C)C)c3)c[nH]c12 (centres unmarked) [Compound 46]	0.63
Cc1cccc2c(CC3C(=O)N(CCCCCN)C(=O)N3S(=O)(=O)c3ccc(Oc4ccc(O)c(Cl)c4)c(C#N)c3)c[nH]c12 (centres unmarked) [Compound 44]	1.00
C[C@@H](O)[C@@H]1NC(=O)[C@H](CCCCN)NC(=O)[C@@H](Cc2c[nH]c3ccccc23)NC(=O)[C@H](Cc2ccccc2)NC(=O)[C@@H](NC(=O)[C@H](N)Cc2ccccc2)CSSC[C@@H](C(=O)N[C@H](CO)[C@@H](C)O)NC1=O [Octreotride, Octreotide, reference compound]	0.30

* * *

Biological target: human sst2 receptor sub-type (Homo sapiens)
Sequence (P30874 whole entry): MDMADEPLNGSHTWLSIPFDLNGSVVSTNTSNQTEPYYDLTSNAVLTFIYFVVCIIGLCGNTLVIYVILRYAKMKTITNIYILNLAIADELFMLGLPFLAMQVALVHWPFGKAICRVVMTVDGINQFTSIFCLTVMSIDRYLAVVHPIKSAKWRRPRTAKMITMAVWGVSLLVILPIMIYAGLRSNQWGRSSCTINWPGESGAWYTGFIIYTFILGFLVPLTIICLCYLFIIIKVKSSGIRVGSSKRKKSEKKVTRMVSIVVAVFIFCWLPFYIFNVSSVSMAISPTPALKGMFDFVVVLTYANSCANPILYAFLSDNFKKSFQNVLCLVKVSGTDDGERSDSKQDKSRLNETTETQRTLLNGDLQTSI
RECORDED_METRIC: IC50 (nM)

COMPOUND	MEASURED_VALUE
Cc1cccc2c(CC3C(=O)N(CCCCCN)C(=O)N3S(=O)(=O)c3ccc(Oc4ccc(O)cc4)c(C#N)c3)c[nH]c12 (stereo not drawn) [Compound 14]	5.7
Cc1cccc2c(CC3C(=O)N(CCCCCN)C(=O)N3S(=O)(=O)c3ccc(Oc4ccc(O)cc4)c(C(=O)N(C)C)c3)c[nH]c12 (stereo not drawn) [Compound 46]	0.43
Cc1cccc2c(CC3C(=O)N(CCCCCN)C(=O)N3S(=O)(=O)c3ccc(Oc4ccc(O)c(Cl)c4)c(C(=O)N(C)C)c3)c[nH]c12 (single isomer, unassigned; (+)) [(+)-43]	0.18
